# Tgt: T1, PrimPol1-475 (RBM deleted) (Homo sapiens, UniProt Q96LW4 1-475)
# T1 sequence: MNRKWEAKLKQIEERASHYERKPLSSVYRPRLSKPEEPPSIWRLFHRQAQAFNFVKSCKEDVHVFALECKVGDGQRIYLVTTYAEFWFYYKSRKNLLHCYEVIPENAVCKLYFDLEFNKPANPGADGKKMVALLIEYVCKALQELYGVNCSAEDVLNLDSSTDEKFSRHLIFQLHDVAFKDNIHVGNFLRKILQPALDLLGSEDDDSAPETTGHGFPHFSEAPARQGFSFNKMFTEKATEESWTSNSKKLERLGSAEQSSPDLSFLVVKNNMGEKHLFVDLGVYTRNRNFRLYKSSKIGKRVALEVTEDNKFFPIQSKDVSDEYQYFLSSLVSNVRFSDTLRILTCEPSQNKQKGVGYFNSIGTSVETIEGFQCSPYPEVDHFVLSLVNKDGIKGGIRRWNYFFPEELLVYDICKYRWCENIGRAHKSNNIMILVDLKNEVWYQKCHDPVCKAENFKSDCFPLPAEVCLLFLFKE
# Test method notes: EMSA; 1 mM Mn2+; EMSA: 40 mM HEPES pH 7.0, 50 mM KCl, 1 mM DTT, 5% glycerol, 0.1 mg/ml BSA, 1 mM MnCl2, 300 nM DNA, 24 C 20 min then ice (RPA assays: 50 nM DNA, 25 nM RPA, 8 C); 5% native PAGE, 0.5x Tris-glycine pH 8.3, 4 C
# Experimental parameters: protein: recombinant; tags: N-terminal SUMO-HIS10; label: Cy5 at 5' of template; template 5' overhang 1 nt, 3' overhang 11 nt
Experimental readout: pKd
Here pKd is given on a logarithmic scale as minus log10 of the concentration in mol/L.

Query: Please report the measured pKd for p-p-p-12/Cy5-Acctg24 (mixed, primer 5'-triphosphate; primer nt 1 is ribo-A, rest DNA) DNA 1: AAAAAAAAAACCTGAAAAAAAAAA DNA 2: AGGTTTTTTTTT
Result: 7.05
